Target: UniProt:P00797
Sequence (P00797 whole entry): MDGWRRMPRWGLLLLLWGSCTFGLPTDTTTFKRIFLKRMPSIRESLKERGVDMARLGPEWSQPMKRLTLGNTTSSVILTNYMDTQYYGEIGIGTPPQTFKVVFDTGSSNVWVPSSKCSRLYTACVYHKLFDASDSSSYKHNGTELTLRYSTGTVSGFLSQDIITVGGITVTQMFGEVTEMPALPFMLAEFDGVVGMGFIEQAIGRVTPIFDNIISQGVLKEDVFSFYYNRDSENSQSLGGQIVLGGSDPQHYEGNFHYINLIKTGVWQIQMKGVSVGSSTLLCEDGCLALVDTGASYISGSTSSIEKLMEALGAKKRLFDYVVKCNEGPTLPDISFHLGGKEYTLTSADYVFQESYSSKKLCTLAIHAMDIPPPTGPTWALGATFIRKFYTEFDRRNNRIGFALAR
Assay: Inhibition of human recombinant renin preincubated for 30 mins followed by substrate addition measured after 15 mins by fluorescence analysis
endpoint-name: IC50 (nM)
Number in nM, nothing else.

Solved entries (count: 3):
sample_smiles=COCCCOc1cc(C[C@@H](C[C@H](N)[C@@H](O)C[C@H](C(=O)NCC(C)(C)Cn2cc(C3(O)CCCC3)nn2)C(C)C)C(C)C)ccc1OC endpoint_name=IC50 units_label=nM value_measured=5.2
sample_smiles=COCCCOc1cc(C[C@@H](C[C@H](N)[C@@H](O)C[C@H](C(=O)NCCc2ccc3c(c2)OCO3)C(C)C)C(C)C)ccc1OC endpoint_name=IC50 units_label=nM value_measured=11
sample_smiles=CCCCc1cn(CC(C)(C)CNC(=O)[C@@H](C[C@H](O)[C@@H](N)C[C@H](Cc2ccc(OC)c(OCCCOC)c2)C(C)C)C(C)C)nn1 endpoint_name=IC50 units_label=nM value_measured=5.8

Alright, here's another compound for you.
Enquiry: For UniProt:P00797, give IC50 of the listed compound: COCCCOc1cc(C[C@@H](C[C@H](N)[C@@H](O)C[C@H](C(=O)NCC(C)(C)Cc2cccc(F)c2)C(C)C)C(C)C)ccc1OC
Return: 9.8

###

Biological target: Renin (Homo sapiens, UniProt P00797)
Sequence (P00797 whole entry): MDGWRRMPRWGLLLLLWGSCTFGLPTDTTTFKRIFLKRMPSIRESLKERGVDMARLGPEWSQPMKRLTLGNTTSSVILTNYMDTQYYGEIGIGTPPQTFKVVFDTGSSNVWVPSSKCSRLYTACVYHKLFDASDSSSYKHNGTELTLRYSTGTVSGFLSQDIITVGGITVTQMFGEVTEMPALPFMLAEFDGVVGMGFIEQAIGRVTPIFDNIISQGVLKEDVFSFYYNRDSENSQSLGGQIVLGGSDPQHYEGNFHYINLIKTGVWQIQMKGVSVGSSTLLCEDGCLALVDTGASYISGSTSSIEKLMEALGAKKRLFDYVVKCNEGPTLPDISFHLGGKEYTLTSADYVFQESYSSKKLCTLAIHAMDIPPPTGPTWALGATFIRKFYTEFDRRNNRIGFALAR
Assay: Inhibition of human recombinant renin preincubated for 30 mins followed by substrate addition measured after 15 mins by fluorescence analysis
endpoint-name: pIC50
A value of pIC50 is the negative decimal logarithm of a concentration given in moles per litre.

sample_smiles=COCCCOc1cc(C[C@@H](C[C@H](N)[C@@H](O)C[C@H](C(=O)NCC(C)(C)Cc2c(F)cccc2F)C(C)C)C(C)C)ccc1OC value_measured=7.79

Enquiry: Please look at this molecule and report its pIC50: COCCCOc1cc(C[C@@H](C[C@H](N)[C@@H](O)C[C@H](C(=O)NCC(C)(C)CCN2CCOCC2)C(C)C)C(C)C)ccc1OC
Return: 8.74

Enquiry: Please look at this molecule and report its pIC50: COCCCOc1cc(C[C@@H](C[C@H](N)[C@@H](O)C[C@H](C(=O)NCC(C)(C)Cn2cc(C(C)(C)C)nn2)C(C)C)C(C)C)ccc1OC
Return: 8.15

Enquiry: Please look at this molecule and report its pIC50: COCCCOc1cc(C[C@@H](C[C@H](N)[C@@H](O)C[C@H](C(=O)N[C@@H](C)c2ccc(Cl)cc2)C(C)C)C(C)C)ccc1OC
Return: 7.82

Enquiry: Please look at this molecule and report its pIC50: COCCCOc1cc(C[C@@H](C[C@H](N)[C@@H](O)C[C@H](C(=O)NCC(C)(C)Cn2cc(C3CC3)nn2)C(C)C)C(C)C)ccc1OC
Return: 8.80
